System: TIE1;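 note: KINOMEscan kinase panel screen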
study_conditions: concentration: 1 μM, replicates: in singlicate; n = 1
Would you mind telling me the reported %Inh of each entry?
Answer with the value and then the unit.

The reported value for `Cc1ccccc1-n1cnc2c(N)ncnc21` in terms of %Inh is 0%

The reported value for `Cc1cc(N2Cc3ccccc3C2)nc(Nc2ccc(S(=O)(=O)N3CCOCC3)cc2)n1.Cl` in terms of %Inh is 0%

The reported value for Cc1nnc(-c2ccc3occ(-c4ccc(S(C)=O)cc4)c3c2)[nH]1 (stereo not drawn) in terms of %Inh is 0%

The reported value for `CC(=O)Nc1nc2cnc(Nc3cc(NC(=O)c4cccc(CCC#N)c4)ccc3C)nc2s1` in terms of %Inh is 0%

The reported value for `COc1ccc2nc(-c3cccc(C)n3)nc(Nc3ccncc3)c2c1` in terms of %Inh is 9%

The reported value for CC1=C(C(=O)Nc2cc3cn[nH]c3cc2F)C(c2ccc(C(F)(F)F)cc2)CC(=O)N1 (stereo not drawn) in terms of %Inh is 12%

The reported value for `Clc1cc(Cl)cc(Nc2ccnc(Nc3cc(Cl)cc(Cl)c3)n2)c1` in terms of %Inh is 0%

The reported value for `Cc1cc(-c2ccc3c(c2)CC[C@@H](N[C@@H](C)c2ccccc2)C3)cnc1N.Cl` in terms of %Inh is 35%

The reported value for `Cc1cc(NCC(c2ccccc2)c2ccccc2)nc(NCc2ccc(C(F)(F)F)cc2)n1` in terms of %Inh is 0%

The reported value for COc1ccc(CNC(=O)NC2CCN(c3ccnc(Nc4cc(OC)c(OC)c(OC)c4)n3)C2)cc1 (stereo not drawn) in terms of %Inh is 20%

The reported value for `Cl.Oc1ccc(-c2nc(-c3ccccc3)[nH]c2-c2ccncc2)cc1` in terms of %Inh is 0%

The reported value for `O=S(=O)(c1ccc(-c2ccnc3[nH]ccc23)cc1)N1CCCC1` in terms of %Inh is 0%

The reported value for `CCn1c(-c2ccccn2)nc2cnccc21` in terms of %Inh is 0%

The reported value for `CN1C(=O)C(Nc2ccc(Cl)c(C(=O)O)c2)=C(c2ccc(Cl)cc2)C1=O` in terms of %Inh is 0%

The reported value for `COc1ccccc1CNC(=O)c1cc(C(=O)c2ccccc2C)c[nH]1` in terms of %Inh is 0%

The reported value for `Cc1ccc(-c2cc(-c3c[nH]nc3-c3ccccn3)ccn2)cc1` in terms of %Inh is 0%

The reported value for `Cc1ccc(C(=O)Nc2ccc(Nc3ccnc4cc(-c5ccccn5)ccc34)cc2O)cc1.Cl` in terms of %Inh is 19%

The reported value for `O=c1cc(N2CCOCC2)nc2n(Cc3cccc(Cl)c3Cl)ccn12` in terms of %Inh is 0%

The reported value for `Cc1ccc(NC(=O)Nc2cccc(Cl)c2)cc1-c1ccc(C(=O)Nc2ccncc2)cc1` in terms of %Inh is 0%

The reported value for `COC(=O)c1c(-c2ccccc2)c2cc(C(=O)O)ccc2c(=O)n1Cc1ccccc1` in terms of %Inh is 0%

The reported value for `O=C(Nc1n[nH]c2nc(-c3nccs3)c(Br)cc12)C1CCCC1` in terms of %Inh is 14%

The reported value for O=C(Nc1ccc2c(c1)OCO2)NC1CCN(c2ccnc(Nc3ccc(F)cc3)n2)C1 (stereo not drawn) in terms of %Inh is 0%

The reported value for `Cc1cccc(-c2cc(Nc3ccncc3)c3ccccc3n2)n1` in terms of %Inh is 0%

The reported value for `CS(=O)(=O)c1ccc(-c2c(-c3ncn[nH]3)sc(N3CCOCC3)c2C#N)cc1` in terms of %Inh is 11%

The reported value for `NC(=O)c1nnc2ccccc2c1N` in terms of %Inh is 14%

The reported value for `CC(C)(C)c1ccc(C(=O)Nc2cn3cc(-c4cccnc4)ccc3n2)cc1` in terms of %Inh is 4%

The reported value for `COc1ccc(Nc2nccc(-c3cccc(NC(=O)c4cc5cc(F)ccc5[nH]4)c3)n2)cc1` in terms of %Inh is 0%
